Collected self-splicing fitness (ln) values appear next to each entry.
# ASSAY COMMENT: self-splicing fitness, log relative to wild type (ln ratio); higher = more splicing; Tetrahymena group I intron in knt gene, E. coli kanamycin selection, DiMSum; sequences stand for … in CUCUCU…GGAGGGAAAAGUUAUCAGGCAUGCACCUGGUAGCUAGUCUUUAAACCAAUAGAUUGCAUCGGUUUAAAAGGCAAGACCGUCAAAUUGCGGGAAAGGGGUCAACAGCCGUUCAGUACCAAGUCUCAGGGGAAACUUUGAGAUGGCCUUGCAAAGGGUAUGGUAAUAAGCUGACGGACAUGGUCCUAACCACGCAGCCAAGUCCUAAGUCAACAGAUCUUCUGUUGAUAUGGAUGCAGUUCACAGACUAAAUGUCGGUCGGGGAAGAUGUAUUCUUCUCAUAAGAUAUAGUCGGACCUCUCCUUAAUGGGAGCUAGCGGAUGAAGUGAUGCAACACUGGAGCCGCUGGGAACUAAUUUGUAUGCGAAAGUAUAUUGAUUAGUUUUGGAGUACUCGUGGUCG;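 further: selection with 25 µg/mL kanamycin versus none on LB agar overnight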
# CONDITIONS: 37 °C

CUUCAGCAAUAUUACGUAUC; -2.48
GGGGAGCAAUAUUACGUCGG; -1.07
UAAAAGCAAUAUUACGCCAC; -2.02
CCAGAGCAAUAUUACGUGCG; -0.888

# self-splicing fitness (ln) (sequence: GGGAAGCAAUAUUACGUUUC ) is -2.19

# self-splicing fitness (ln) (sequence: UCCUAGCAAUAUUACGACCU ) is -1.76
